- Assay remarks: Lung S9 metabolism
- Assay type: in vitro ADME, human
- Condition label: human lung S9, 1 μM compound, 1 mg/mL S9 protein, NADPH and PAPS
Readout label: Compound Remaining at 60 min (%)

{"Molecule": "CCc1cc(O)ccc1-c1ccc2c(-c3nc4c([nH]3)CN(CC)[C@H](C(=O)N3CC(N(C)C)C3)C4)n[nH]c2c1", "Unit tag": "%", "Value": 98}
{"Molecule": "CCc1cc(O)c(F)cc1-c1ccc2c(-c3nc4c([nH]3)CN(CC)[C@H](C(=O)N3CC(N(C)C)C3)C4)n[nH]c2c1 [Compound C-2, reference compound]", "Unit tag": "%", "Value": 6}
{"Molecule": "CCc1cc(O)c(F)cc1-c1ccc2c(-c3nc4c([nH]3)CN(C(C)C)[C@H](C(=O)N3CC(C)(N(C)C)C3)C4)n[nH]c2c1 [Compound C-4, reference compound]", "Unit tag": "%", "Value": 4}

====

Each item that follows carries a reported Compound Remaining at 60 min (%).
- Assay remarks: Lung S9 metabolism
- Assay type: in vitro ADME, human
- Condition label: human lung S9, 1 μM compound, 1 mg/mL S9 protein, NADPH and PAPS
Readout label: Compound Remaining at 60 min (%)

{"Compound": "CCc1cc(O)ccc1-c1ccc2c(-c3nc4c([nH]3)CN(C(C)C)[C@H](C(=O)N3CC(N(C)C)C3)C4)n[nH]c2c1 [Compound 1]", "Readout label": "Compound Remaining at 60 min (%)", "Unit tag": "%", "Value": 81}
{"Compound": "CCc1cc(O)ccc1-c1ccc2c(-c3nc4c([nH]3)CN(CC)[C@H](C(=O)N3CC(C)(N(C)C)C3)C4)n[nH]c2c1 [Compound 3]", "Readout label": "Compound Remaining at 60 min (%)", "Unit tag": "%", "Value": 97}
{"Compound": "CCCN1Cc2[nH]c(-c3n[nH]c4cc(-c5cc(F)c(O)cc5CC)ccc34)nc2C[C@H]1C(=O)N1CC(N(C)C)C1 [Compound C-5, reference compound]", "Readout label": "Compound Remaining at 60 min (%)", "Unit tag": "%", "Value": 5}

====

- Assay remarks: Lung S9 metabolism
- Type: in vitro ADME, human
- Condition label: human lung S9, 1 μM compound, 1 mg/mL S9 protein, NADPH and PAPS
Classification field: enter rule met for Compound Remaining at 60 min (%) values not below 6%, rule not met for values below it.

{"Molecule": "CCc1cc(O)c(F)cc1-c1ccc2c(-c3nc4c([nH]3)CN(CC)[C@H](C(=O)N3CC(C)(N(C)C)C3)C4)n[nH]c2c1 [Compound C-3, reference compound]", "Group": "rule not met"}
{"Molecule": "CCCN1Cc2[nH]c(-c3n[nH]c4cc(-c5cc(F)c(O)cc5CC)ccc34)nc2C[C@H]1C(=O)N1CC(C)(N(C)C)C1 [Compound C-6, reference compound]", "Group": "rule not met"}
{"Molecule": "CCCN1Cc2[nH]c(-c3n[nH]c4cc(-c5ccc(O)cc5CC)ccc34)nc2C[C@H]1C(=O)N1CC(N(C)C)C1", "Group": "rule met"}
{"Molecule": "CCc1cc(O)ccc1-c1ccc2c(-c3nc4c([nH]3)CN(C(C)C)[C@H](C(=O)N3CC(C)(N(C)C)C3)C4)n[nH]c2c1", "Group": "rule met"}
{"Molecule": "CCCN1Cc2[nH]c(-c3n[nH]c4cc(-c5ccc(O)cc5CC)ccc34)nc2C[C@H]1C(=O)N1CC(C)(N(C)C)C1", "Group": "rule met"}
